Origin of measurements: ChEMBL document CHEMBL1821585

- System under test: Cannabinoid receptor 1 (Homo sapiens)
- Sequence (P21554 whole entry): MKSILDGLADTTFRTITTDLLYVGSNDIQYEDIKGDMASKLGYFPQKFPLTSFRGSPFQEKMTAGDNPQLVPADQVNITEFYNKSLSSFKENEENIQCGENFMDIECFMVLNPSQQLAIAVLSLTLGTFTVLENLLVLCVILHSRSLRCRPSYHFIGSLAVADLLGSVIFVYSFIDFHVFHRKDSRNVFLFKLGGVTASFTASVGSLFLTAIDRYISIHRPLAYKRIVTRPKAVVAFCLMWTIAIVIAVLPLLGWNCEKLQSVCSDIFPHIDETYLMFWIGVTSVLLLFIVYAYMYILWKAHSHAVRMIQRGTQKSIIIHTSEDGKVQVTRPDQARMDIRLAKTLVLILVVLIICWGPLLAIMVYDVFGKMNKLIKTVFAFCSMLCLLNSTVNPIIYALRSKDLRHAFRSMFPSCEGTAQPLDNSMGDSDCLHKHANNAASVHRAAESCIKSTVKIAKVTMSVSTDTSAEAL
- Measurement protocol: Binding affinity to CB1 receptor
Recorded pKi, one value per entry.
Schema: pKi number; meaning minus log10 of the concentration expressed in molar units.

Some compounds with known pKi results, for comparison:
CCCCCCC(C)(C)c1cc(OC)c(C2CCCC(C)(O)C2)c(OC)c1 (stereo not drawn); 5.30
CCCCCc1cc2cc(C(=O)NCCc3ccc(F)cc3)c(=O)n(C)c2c(O)c1OC; 3.06

Kindly review the next compound as well.
QUERY: Enter reported pKi observed with Cannabinoid receptor 1 (Homo sapiens) for CCCCCc1cc2cc(C(=O)NCCc3ccc(F)cc3)c(=O)[nH]c2c(O)c1OC
RESULT: 2.62
